- Test system: UO-31 renal
- run.description: NCI tumour cell line growth inhibition, 48 h

molecule	experimental.target	relational.operator	TGI [µM]
COc1cc(/C=C(/C#N)C(N)=O)ccc1O	UO-31 renal	>	100
CC1(C)OC2C(=O)C=C(COCc3ccccc3)C2O1 (stereo not given)	UO-31 renal	=	50.1
CC(=O)OCC1OC(n2c(=O)[nH]c(=O)c3sccc32)C(Br)C1OC(C)=O (stereo not given)	UO-31 renal	>	100
CCOC(=O)c1ccc(C(=O)C(C(C)=O)C(=O)OC(C)(C)C)[nH]1 (stereo not given)	UO-31 renal	>	100
[N-]=[N+]=C1C(=O)C2CC3CC(C2)CC1C3	UO-31 renal	>	100
COc1ccc(C(Cl)=C(c2ccc(OCCN(C)C)cc2)c2ccc(OCCN(C)C)cc2)cc1	UO-31 renal	=	3.31
Cc1ccc(/C=C2\CCCC(CN3CCCCC3)C2=O)cc1 (stereo not given)	UO-31 renal	=	3.58
COC(=O)C1=C(OC(=O)c2ccccc2)C(C(=O)OC)[C@]2(O)[C@@H](C(=O)OC)[C@H]1C[C@@H](c1ccccc1)[C@@H]2C(=O)OC (stereo not given in full)	UO-31 renal	=	10.1
CCCCCCCCCCCCCP(=O)(O)NCC(N)=O	UO-31 renal	=	90.4
CCC(c1c[nH]c2ccc(Br)cc12)c1c[nH]c2ccc(Br)cc12	UO-31 renal	=	18.7

Origin of values: PubChem BioAssay (NCI)
